assay: Inhibitory activity against farnesyl transferase
Exercise: for every item that follows, state its recorded pIC50.
Answers are plain numbers, as −log10 of the molar value.

compound	pIC50
CSCC[C@H](NC(=O)[C@H](Cc1cc(C)c(O)cc1C)NC(=O)[C@@H](NC(=O)[C@H](CS)NC=O)C(C)C)C(=O)O	5.26
COC(=O)[C@H](CCSC)NC(=O)[C@@H](Cc1ccc(O)c(C)c1C)NC(=O)[C@@H](NC(=O)[C@@H](N)CS)C(C)C	4.15
CSCC[C@H](NC(=O)[C@H]1CC2CCCCC2N1C(=O)[C@@H](NC(=O)[C@@H](N)CS)C(C)C)C(=O)O (some centres not stated)	6.00
CSCC[C@H](NC(=O)[C@@H](Cc1ccc(C)cc1C)NC(=O)[C@@H](NC(=O)[C@@H](N)CS)C(C)C)C(=O)O	5.37
CSCC[C@H](NC(=O)[C@@H](Cc1cc(C)c(O)cc1C)NC(=O)[C@@H](NC(=O)[C@H](CS)NC=O)C(C)C)C(=O)O	4.99
CSCC[C@H](NC(=O)[C@H](Cc1ccc(O)c(C)c1C)NC(=O)[C@@H](NC(=O)[C@@H](N)CS)C(C)C)C(=O)O	7.00

Fill in the blank: the reported pIC50 of `CSCC[C@H](NC(=O)[C@@H](Cc1cc(C)c(O)cc1C)NC(=O)[C@@H](NC(=O)[C@@H](N)CS)C(C)C)C(=O)O` is ____. 4.98

Measured values drawn from ChEMBL document CHEMBL1138191 for this set.
